# subjectOfTest: T1, XCR1-SMALP (Homo sapiens, UniProt P46094)
# T1 sequence (P46094 1-333): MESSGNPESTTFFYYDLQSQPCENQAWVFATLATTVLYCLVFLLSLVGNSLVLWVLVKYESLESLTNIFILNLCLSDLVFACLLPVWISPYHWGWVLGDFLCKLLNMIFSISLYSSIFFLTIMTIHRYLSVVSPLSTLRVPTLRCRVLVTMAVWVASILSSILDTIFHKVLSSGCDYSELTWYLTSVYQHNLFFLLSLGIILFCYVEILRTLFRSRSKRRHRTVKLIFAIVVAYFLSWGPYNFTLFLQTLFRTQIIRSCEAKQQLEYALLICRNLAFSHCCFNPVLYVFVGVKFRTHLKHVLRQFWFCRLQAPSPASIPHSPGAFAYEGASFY
# assayDetails: Yeast-display non-specific binding to irrelevant XCR1-SMALP
# statedConditions: 25 nM; fold change compared to LIBC528116 (Fab), after background subtraction
measureName: 25 nM XCR1-SMALP-GFP, relative binding fold change

molecule | quantitativeReadout
LIBC680812-1: further VK1 LC-optimized affinity-matured variant (antibody, V domains shown) VH: QVQLQESGPGLVKPSQTLSLTCTVSGGSIRRGGDYWGWIRQHPGKGLEWIGHVYQTGSTKYNPSFKDRATISVNTYKNQFSLKLSSVTAADTAVYYCARNYDTLTGYSYYYYGMDVWGQGTTVTVSS VL: DIQMTQSPSSLSASVGDRVTITCRASQSISSYLNWYQQKPGKAPKLLIYSARRLSSGVPSRFSGSGSGTDFTLTISSLQPEDFATYYCQQYRSYPITFGGGTKVEIKR | 0.59
LIBC680562-1: further VK1 LC-optimized affinity-matured variant (antibody, V domains shown) VH: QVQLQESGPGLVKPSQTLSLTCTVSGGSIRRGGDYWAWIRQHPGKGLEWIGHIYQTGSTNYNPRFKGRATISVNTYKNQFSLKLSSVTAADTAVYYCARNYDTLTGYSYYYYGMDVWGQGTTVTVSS VL: DIQMTQSPSSLSASVGDRVTITCRASQSISSYLNWYQQKPGKAPKLLIYSARRLSSGVPSRFSGSGSGTDFTLTISSLQPEDFATYYCQQYAKSPITFGGGTKVEIKR | 0.64
LIBC680800-1: further VK1 LC-optimized affinity-matured variant (antibody, V domains shown) VH: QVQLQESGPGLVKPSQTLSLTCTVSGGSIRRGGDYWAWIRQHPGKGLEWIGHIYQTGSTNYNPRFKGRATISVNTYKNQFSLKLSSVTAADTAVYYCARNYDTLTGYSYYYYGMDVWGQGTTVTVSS VL: DIQMTQSPSSLSASVGDRVTITCRASQSISSYLNWYQQKPGKAPKLLIYSARALSSGVPSRFSGSGSGTDFTLTISSLQPEDFATYYCQQYRKFPLTFGGGTKVEIKR | 0.47
LIBC680574-1: further VK1 LC-optimized variant; HV SEQ ID NO: 460, LV SEQ ID NO: 459; 52778 in YTE format (antibody, V domains shown, YTE Fc format, further VK1 LC-optimized variant; 52778 in YTE format) VH: QVQLQESGPGLVKPSQTLSLTCTVSGGSIRRGGDYWAWIRQHPGKGLEWIGHVYYTGSTKYNPSFKDRATISVNTYKNQFSLKLSSVTAADTAVYYCARNYDTLTGYSYYYYGMDVWGQGTTVTVSS VL: DIQMTQSPSSLSASVGDRVTITCRASQSISSYLNWYQQKPGKAPKLLIYGARRLGSGVPSRFSGSGSGTDFTLTISSLQPEDFATYYCQQYSSLPVTFGGGTKVEIKR | 0.56
